Below: a set of entries, each annotated with reported polymerase ribozyme fitness (log ratio).
B1: TPR 5TU (parent)
chain: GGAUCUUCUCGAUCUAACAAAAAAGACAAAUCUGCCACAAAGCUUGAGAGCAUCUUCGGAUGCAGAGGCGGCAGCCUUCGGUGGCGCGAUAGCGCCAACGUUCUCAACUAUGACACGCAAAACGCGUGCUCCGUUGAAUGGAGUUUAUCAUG

# Variants of: B1
# PROCEDURE_DETAILS: polymerase ribozyme fitness, log enrichment relative to wild type (log ratio); higher = more active; in vitro selection for triplet polymerase activity
Variants at the floor of the assay were thinned out.
Give the value as a plain number.

>>> readout_number("U6A")
0.197
>>> readout_number("A20G G58A G81C A142C")
-1.55
>>> readout_number("U9A A47C")
-4.13
>>> readout_number("A24U G46C A73G C87U G92C")
-3.37
>>> readout_number("A41G U44A U55A")
-3.41

**Q:** Using the record for C63U C103G U146G , report its polymerase ribozyme fitness (log ratio).
**A:** -2.3

**Q:** Using the record for A12G C87G , report its polymerase ribozyme fitness (log ratio).
**A:** -3.83

**Q:** Using the record for C18U A37U U55A G86A , report its polymerase ribozyme fitness (log ratio).
**A:** -3.67

**Q:** Using the record for G70A C96U , report its polymerase ribozyme fitness (log ratio).
**A:** -2.89
